# Assayed Target: recombinant WT T. cruzi proteasome (trypsin-like activity, β2) (Trypanosoma cruzi, UniProt V5BCU3)
# Test Description: biochemical
# Format: biochemical
# Study Conditions: mean ± SD, N = 3; read-out: pIC50, Trypsin Assay, Wild-type (converted)
Residues, ends and D or L forms follow the SMILES beside them. *: point of attachment. Cbz = O=C(OCc1ccccc1)*
What IC50 was measured for each of the following?

Worked examples follow.
[
  {
    "Compound": "O=C(Nc1ccc(F)c(C(=O)NC2CC2)c1)c1ccc(COc2ccccc2)o1",
    "Observed Measurement": "> 30.2 µM"
  },
  {
    "Compound": "COC[C@H](NC(=O)c1cnc(C)s1)C(=O)N[C@@H](COC)C(=O)N[C@@H](Cc1ccccc1)C(=O)[C@@]1(C)CO1",
    "Observed Measurement": "> 30.2 µM"
  }
]

Batch: IC50 for all items listed.
1. CC(C)C[C@@H](C=O)NC(=O)[C@H](CC(C)C)NC(=O)[C@H](CC(C)C)NC(=O)OCc1ccccc1 [MG132, reference compound] (Cbz-Leu-Leu-Leu-aldehyde)
2. O=C(Nc1ccc(F)c(-c2cn3nc(-c4ccccc4)cnc3n2)c1)N1CCCC1
3. CNC(=O)c1cc(NC(=O)c2ccc(=O)n(Cc3ccc(OC)cc3)n2)ccc1F
4. O=C(Nc1ccc(F)c(-c2cn3nc(N4CCOCC4)cnc3n2)c1)N1CCCC1
5. CC(C)C[C@H](NC(=O)CNC(=O)c1cc(Cl)ccc1Cl)B(O)O [Ixazomib, reference compound]

1: 8.32 µM; 2: > 30.2 µM; 3: > 30.2 µM; 4: > 30.2 µM; 5: 6.92 µM

###

What EC50 was measured for each of the following?
# Tested on: intracellular T. cruzi Silvio X10/7 A1 amastigotes
# Test Description: Intracellular T. cruzi assay
# Assay type: cell-based
# Study Conditions: Trypanosoma cruzi; 96 h compound treatment, Vero host cells; given as [mean pEC50, SD, N]; read-out: Mean pEC50 against intracellular T. cruzi parasites (converted)
One number for each entry, in nM.

Batch: EC50 for all items listed.
1. O=C(Nc1ccc(F)c(-c2cn3nc(N4CCOCC4)cnc3n2)c1)N1CCCC1
2. O=C(Nc1ccc(F)c(C(=O)NC2CC2)c1)c1ccc(COc2ccccc2)o1
3. CNC(=O)c1cc(NC(=O)c2ccc(=O)n(Cc3ccc(OC)cc3)n2)ccc1F
4. O=C(Nc1ccc(F)c(-c2cn3nc(-c4ccccc4)cnc3n2)c1)N1CCCC1

1. 126
2. 251
3. 794
4. 20

###

# Assayed Target: recombinant β4^R mutant T. cruzi proteasome (caspase-like activity) (Trypanosoma cruzi, UniProt V5BHX1)
# Test Description: Caspase-like activity assay (Proteasome-Glo), recombinant β4^R mutant T. cruzi proteasome
# Method: Point mutations were created in individual subunits using overlapping PCR from the original templates using Polh and Tn7L primers outside the genes and suitable internal primers to introduce selected mutations. […] Luminescence was read either kinetically or as an endpoint read using an EnVision 2102 Multilabel Reader (PerkinElmer, Inc) with 0.2 s per well reading time. When kinetic assays were run, luminescence was read every 5 min for 90 min. […]
Residues, ends and D or L forms follow the SMILES beside them. *: point of attachment. Cbz = O=C(OCc1ccccc1)*
Measurement Label: IC50

Worked examples follow.
[
  {
    "Molecule": "O=C(Nc1ccc(F)c(C(=O)NC2CC2)c1)c1ccc(COc2ccccc2)o1",
    "IC50": "> 30.2 µM"
  },
  {
    "Molecule": "CC(C)C[C@@H](C=O)NC(=O)[C@H](CC(C)C)NC(=O)[C@H](CC(C)C)NC(=O)OCc1ccccc1 [MG132, reference compound] (Cbz-Leu-Leu-Leu-aldehyde)",
    "IC50": "3.09 µM"
  },
  {
    "Molecule": "O=C(Nc1ccc(F)c(-c2cn3nc(N4CCOCC4)cnc3n2)c1)N1CCCC1",
    "IC50": "> 30.2 µM"
  },
  {
    "Molecule": "O=C(Nc1ccc(F)c(-c2cn3nc(-c4ccccc4)cnc3n2)c1)N1CCCC1",
    "IC50": "> 30.2 µM"
  },
  {
    "Molecule": "COC[C@H](NC(=O)c1cnc(C)s1)C(=O)N[C@@H](COC)C(=O)N[C@@H](Cc1ccccc1)C(=O)[C@@]1(C)CO1",
    "IC50": "> 30.2 µM"
  },
  {
    "Molecule": "CC(C)C[C@H](NC(=O)[C@H](Cc1ccccc1)NC(=O)c1cnccn1)B(O)O",
    "IC50": "0.0933 µM"
  }
]

Batch: IC50 for all items listed.
1. CNC(=O)c1cc(NC(=O)c2ccc(=O)n(Cc3ccc(OC)cc3)n2)ccc1F
2. CC(C)C[C@H](NC(=O)CNC(=O)c1cc(Cl)ccc1Cl)B(O)O [Ixazomib, reference compound]

1. > 30.2 µM
2. 0.0468 µM

###

# Assayed Target: native T. cruzi proteasome (caspase-like activity, β1) (Trypanosoma cruzi, UniProt V5BHX1)
# Test Description: Caspase-like activity assay (Proteasome-Glo), native T. cruzi proteasome
# Type: biochemical
# Study Conditions: mean ± SD, N = 3; read-out: pIC50, Caspase Assay, Native (converted)
Residues, ends and D or L forms follow the SMILES beside them. *: point of attachment. Cbz = O=C(OCc1ccccc1)*
Measurement Label: IC50

Worked examples follow.
[
  {
    "Compound": "CC(C)C[C@H](NC(=O)[C@H](Cc1ccccc1)NC(=O)c1cnccn1)B(O)O",
    "Assayed Target": "native T. cruzi proteasome (caspase-like activity, β1) (Trypanosoma cruzi, UniProt V5BHX1)",
    "Observed Measurement": "0.0724 µM"
  },
  {
    "Compound": "CC(C)C[C@H](NC(=O)CNC(=O)c1cc(Cl)ccc1Cl)B(O)O [Ixazomib, reference compound]",
    "Assayed Target": "native T. cruzi proteasome (caspase-like activity, β1) (Trypanosoma cruzi, UniProt V5BHX1)",
    "Observed Measurement": "0.0447 µM"
  },
  {
    "Compound": "COC[C@H](NC(=O)c1cnc(C)s1)C(=O)N[C@@H](COC)C(=O)N[C@@H](Cc1ccccc1)C(=O)[C@@]1(C)CO1",
    "Assayed Target": "native T. cruzi proteasome (caspase-like activity, β1) (Trypanosoma cruzi, UniProt V5BHX1)",
    "Observed Measurement": "> 30.2 µM"
  }
]

Batch: IC50 for all items listed.
1. O=C(Nc1ccc(F)c(-c2cn3nc(N4CCOCC4)cnc3n2)c1)N1CCCC1
2. CNC(=O)c1cc(NC(=O)c2ccc(=O)n(Cc3ccc(OC)cc3)n2)ccc1F
3. CC(C)C[C@@H](C=O)NC(=O)[C@H](CC(C)C)NC(=O)[C@H](CC(C)C)NC(=O)OCc1ccccc1 [MG132, reference compound] (Cbz-Leu-Leu-Leu-aldehyde)
4. O=C(Nc1ccc(F)c(C(=O)NC2CC2)c1)c1ccc(COc2ccccc2)o1
5. O=C(Nc1ccc(F)c(-c2cn3nc(-c4ccccc4)cnc3n2)c1)N1CCCC1

1. > 30.2 µM
2. > 30.2 µM
3. 3.98 µM
4. > 30.2 µM
5. > 30.2 µM

###

# Assayed Target: native T. cruzi proteasome (chymotrypsin-like activity, β5) (Trypanosoma cruzi, UniProt V5BU39+V5C017)
# Test Description: Chymotrypsin-like activity assay (Proteasome-Glo), native T. cruzi proteasome
What pIC50 was measured for each of the following?
Numbers only, as −log10 of the molar value.

Batch: pIC50 for all items listed.
1. CNC(=O)c1cc(NC(=O)c2ccc(=O)n(Cc3ccc(OC)cc3)n2)ccc1F [DDD02097487]
2. O=C(Nc1ccc(F)c(-c2cn3nc(-c4ccccc4)cnc3n2)c1)N1CCCC1 [DDD01012248]
3. O=C(Nc1ccc(F)c(-c2cn3nc(N4CCOCC4)cnc3n2)c1)N1CCCC1 [DDD01012247]

1: 6.92; 2: 7.51; 3: 7.92

###

What pIC50 was measured for each of the following?
# Assayed Target: recombinant WT T. cruzi proteasome (chymotrypsin-like activity, β5) (Trypanosoma cruzi, UniProt V5BU39+V5C017)
# Test Description: biochemical
Residues, ends and D or L forms follow the SMILES beside them. *: point of attachment. Cbz = O=C(OCc1ccccc1)*
One number for each entry, as −log10 of the molar value.

[
  {
    "Molecule": "O=C(Nc1ccc(F)c(-c2cn3nc(N4CCOCC4)cnc3n2)c1)N1CCCC1 [DDD01012247]",
    "pIC50": 7.79
  },
  {
    "Molecule": "O=C(Nc1ccc(F)c(-c2cn3nc(-c4ccccc4)cnc3n2)c1)N1CCCC1 [DDD01012248]",
    "pIC50": 7.28
  }
]

Batch: pIC50 for all items listed.
1. O=C(Nc1ccc(F)c(C(=O)NC2CC2)c1)c1ccc(COc2ccccc2)o1 [DDD02091966]
2. CC(C)C[C@@H](C=O)NC(=O)[C@H](CC(C)C)NC(=O)[C@H](CC(C)C)NC(=O)OCc1ccccc1 [MG132, reference compound] (Cbz-Leu-Leu-Leu-aldehyde)
3. CNC(=O)c1cc(NC(=O)c2ccc(=O)n(Cc3ccc(OC)cc3)n2)ccc1F [DDD02097487]
4. CC(C)C[C@H](NC(=O)CNC(=O)c1cc(Cl)ccc1Cl)B(O)O [Ixazomib, reference compound]

7.46
6.94
6.75
7.71
